# Test system: A549
# experimental-protocol: Cytotoxicity against human A549 cells by tetrazolium salt-based colorimetric assay
# Type: functional
# conditions-used: read-out: ED50 (the source's name)
property-label: EC50

O=C(OC[C@H]1O[C@@H](OC(=O)c2cc(O)c(O)c(O)c2)[C@H](OC(=O)c2cc(O)c(O)c(O)c2)[C@@H](OC(=O)c2cc(O)c(O)c(O)c2)[C@@H]1O)c1cc(O)c(O)c(O)c1    > 10 µg/mL
O=C(O[C@H]1[C@H](O)C[C@](O)(C(=O)O)C[C@H]1OC(=O)c1cc(O)c(O)c(O)c1)c1cc(O)c(O)c(O)c1    > 10 µg/mL
O=C(O[C@@H]1C[C@](OC(=O)c2cc(O)c(O)c(O)c2)(C(=O)O)C[C@@H](OC(=O)c2cc(O)c(O)c(O)c2)[C@H]1OC(=O)c1cc(O)c(O)c(O)c1)c1cc(O)c(O)c(O)c1    > 10 µg/mL
O=C(OC[C@H]1O[C@@H](O)[C@H](OC(=O)c2cc(O)c(O)c(O)c2)[C@@H](OC(=O)c2cc(O)c(O)c(O)c2)[C@@H]1OC(=O)c1cc(O)c(O)c(O)c1)c1cc(O)c(O)c(O)c1    > 10 µg/mL
O=C(O[C@@H]1O[C@@H]2COC(=O)c3cc(O)c(O)c(O)c3-c3c(cc(Oc4c(C(=O)O)cc(O)c(O)c4O)c(O)c3O)C(=O)O[C@H]([C@H]1O)[C@@H]2O)c1cc(O)c(O)c(O)c1 [MALLOTINIC ACID]    > 10 µg/mL
CC1(C)CC[C@]2(C(=O)O[C@@H]3O[C@H](CO)[C@@H](O)[C@H](O)[C@H]3O)CC[C@]3(C)C(=CC[C@@H]4[C@@]5(C)C[C@@H](O)[C@@H]6OC(=O)c7cc(O)c(O)c(O)c7-c7c(cc(O)c(O)c7O)C(=O)OC[C@@]6(CO)[C@@H]5CC[C@]43C)[C@@H]2C1 [CASTANOPSININ A]    > 10 µg/mL
O=C(OC[C@H]1O[C@@H](OC(=O)c2cc(O)c(O)c(O)c2)[C@H](O)[C@@H](O)[C@@H]1OC(=O)c1cc(O)c(O)c(O)c1)c1cc(O)c(O)c(O)c1    > 10 µg/mL
O=C(O)C[C@H]1C(=O)O[C@H]2[C@H](OC(=O)c3cc(O)c(O)c(O)c3)[C@@H](OC(=O)c3cc(O)c(O)c4c3[C@H]1[C@H](O)C(=O)O4)[C@H](OC(=O)c1cc(O)c(O)c(O)c1)O[C@@H]2COC(=O)c1cc(O)c(O)c(O)c1 [CHEBULINIC ACID]    > 10 µg/mL
O=C(OC[C@H]1OC(O)[C@@](O)(COC(=O)c2cc(O)c(O)c(O)c2)[C@@H]1O)c1cc(O)c(O)c(O)c1 (some centres not stated) [HAMAMELITANNIN]    > 10 µg/mL
O=C(O[C@H]1[C@H](O)C[C@](OC(=O)c2cc(O)c(O)c(O)c2)(C(=O)O)C[C@H]1OC(=O)c1cc(O)c(O)c(O)c1)c1cc(O)c(O)c(O)c1    > 10 µg/mL

Provide the reported EC50 of each entry below, same order.
1. O=C(O[C@@H]1[C@@H](c2c(O)cc(O)c3c2O[C@H](c2ccc(O)c(O)c2)[C@H](OC(=O)c2cc(O)c(O)c(O)c2)C3)c2c(O)cc(O)cc2O[C@@H]1c1ccc(O)c(O)c1)c1cc(O)c(O)c(O)c1
2. O=C1O[C@H]2[C@H](OC(=O)c3cc(O)c(O)c(O)c3)[C@@H](OC(=O)c3cc(O)c(O)c4c3[C@@H]3C1=CC(=O)C(O)(O)C3(O)O4)[C@H](OC(=O)c1cc(O)c(O)c(O)c1)O[C@@H]2COC(=O)c1cc(O)c(O)c(O)c1 (some centres not stated) [TERCHEBIN]

1. > 10 µg/mL
2. > 10 µg/mL

Provide the reported EC50 of each entry below, same order.
1. O=C1O[C@H]2[C@H](O)[C@@H](OC(=O)c3cc(O)c(O)c4c3[C@@H]3C1=CC(=O)C(O)(O)C3(O)O4)[C@H](OC(=O)c1cc(O)c(O)c(O)c1)O[C@@H]2CO (some centres not stated) [FUROSIN]
2. O=C(O[C@@H]1O[C@@H]2COC(=O)c3cc(O)c(O)c(O)c3-c3c(cc(O)c(O)c3O)C(=O)O[C@H]2[C@H](O)[C@H]1O)c1cc(O)c(O)c(O)c1 [STRICTININ]
3. O=C1O[C@@H]2[C@@H](OC(=O)c3cc(O)c(O)c(O)c3-c3c1cc(O)c(O)c3O)[C@H](O)O[C@@H]1COC(=O)c3cc(O)c(O)c(O)c3-c3c(O)c(O)c4oc(=O)c5c(c(O)c(O)c6oc(=O)c3c4c65)-c3c(cc(O)c(O)c3O)C(=O)O[C@@H]21 [PUNICALAGIN]
4. Oc1cc(O)c2c(c1)O[C@@]1(c3ccc(O)c(O)c3)Oc3cc(O)c4c(c3[C@@H]2[C@H]1O)O[C@H](c1ccc(O)c(O)c1)[C@H](O)[C@H]4c1c(O)cc(O)c2c1O[C@H](c1ccc(O)c(O)c1)[C@H](O)C2 [CINNAMTANNIN B1]
5. O=C1O[C@H]([C@@H]2OC(=O)c3cc(O)c(O)c(O)c3-c3c(O)c(O)c4oc(=O)c5c(c(O)c(O)c6oc(=O)c3c4c65)-c3c(cc(O)c(O)c3O)C(=O)OC[C@H]2O)[C@@H]2OC(=O)c3c(c(O)c(O)c(O)c3[C@H]2O)-c2c1cc(O)c(O)c2O [PUNICACORTEIN C]

["> 10 µg/mL", "> 10 µg/mL", "> 10 µg/mL", "> 10 µg/mL", "> 10 µg/mL"]
